Data provenance is patent US20230365616A1.

Assay: Calcein AM viability test on ATRA-differentiated neuron-like SH-SY5Y cells
Type: cell-based
Conditions: human, ATRA-differentiated neuron-like SH-SY5Y neuroblastoma cells; 5 μM, 24 hours of treatment, mean of two independent experiments; read-out: Viability (% of DMSO control)
Measure Name: viability at 24 h, 5 µM (%)
I only need the number, in %, no unit after it.

Problem: Param item = CC(=O)N(O)CCCCCNC(=O)CCC(=O)N(O)CCCCCNC(=O)CCC(=O)N(O)CCCCCN [DFO, deferoxamine, reference compound] ; retrieve measured viability at 24 h, 5 µM.
Result: 106

----------
# maps each entry to its Viability (% of DMSO control)
Test system: SH-SY5Y human neuroblastoma cell line (neuron-like phenotype)
Test: Calcein AM viability test on ATRA-differentiated neuron-like SH-SY5Y cells
Type: cell-based
Settings: 1 μM, 24 hours of treatment, mean of two independent experiments

Check out these entries, answers already filled in.
Problem: Param item = CCC[C@@H](C)[C@H]1CC[C@H]2[C@@H]3CC(=O)[C@H]4C[C@H](O)[C@H](O)C[C@]4(C)[C@H]3CC[C@]12C ; retrieve measured Viability (% of DMSO control).
Result: 106.40 % of DMSO control

Problem: Another compound: CC[C@@H](C)[C@H]1CC[C@H]2[C@@H]3CC(=O)[C@H]4C[C@H](O)[C@H](O)C[C@]4(C)[C@H]3CC[C@]12C
Result: 104.80 % of DMSO control

Problem: Another compound: CCCC[C@@H](C)[C@H]1CC[C@H]2[C@@H]3CC(=O)[C@H]4C[C@H](O)[C@H](O)C[C@]4(C)[C@H]3CC[C@]12C
Result: 102.30 % of DMSO control

Problem: Another compound: CCCCC[C@@H](C)[C@H]1CC[C@H]2[C@@H]3CC(=O)[C@H]4C[C@H](O)[C@H](O)C[C@]4(C)[C@H]3CC[C@]12C
Result: 108.90 % of DMSO control

// switching to the query compound
Problem: Param item = CC(C)CCC[C@@H](C)[C@H]1CC[C@H]2[C@@H]3CC(=O)[C@H]4C[C@H](O)[C@H](O)C[C@]4(C)[C@H]3CC[C@]12C ; retrieve measured Viability (% of DMSO control).
Result: 107.80 % of DMSO control

----------
Test system: SH-SY5Y human neuroblastoma cell line (neuron-like phenotype)
Test: Calcein AM viability test on ATRA-differentiated neuron-like SH-SY5Y cells
Format: cell-based
Details: 10 μM, 24 hours of treatment, mean of two independent experiments
# maps each entry to its Viability (% of DMSO control)

Check out these entries, answers already filled in.
Problem: Param item = CCCC[C@@H](C)[C@H]1CC[C@H]2[C@@H]3CC(=O)[C@H]4C[C@H](O)[C@H](O)C[C@]4(C)[C@H]3CC[C@]12C [Compound 30] ; retrieve measured Viability (% of DMSO control).
Result: 104.70 % of DMSO control

Problem: Another molecule: CC[C@@H](C)[C@H]1CC[C@H]2[C@@H]3CC(=O)[C@H]4C[C@H](O)[C@H](O)C[C@]4(C)[C@H]3CC[C@]12C [Compound 6]
Result: 122.10 % of DMSO control

Problem: Another molecule: CCCCC[C@@H](C)[C@H]1CC[C@H]2[C@@H]3CC(=O)[C@H]4C[C@H](O)[C@H](O)C[C@]4(C)[C@H]3CC[C@]12C [Compound 57]
Result: 117.10 % of DMSO control

Problem: Another molecule: CCC[C@@H](C)[C@H]1CC[C@H]2[C@@H]3CC(=O)[C@H]4C[C@H](O)[C@H](O)C[C@]4(C)[C@H]3CC[C@]12C [Compound 15]
Result: 120.60 % of DMSO control

Next:
Problem: Param item = CC(C)CCC[C@@H](C)[C@H]1CC[C@H]2[C@@H]3CC(=O)[C@H]4C[C@H](O)[C@H](O)C[C@]4(C)[C@H]3CC[C@]12C [Compound 111] ; retrieve measured Viability (% of DMSO control).
Result: 109.90 % of DMSO control

----------
Tested on: SH-SY5Y human neuroblastoma cell line (neuron-like phenotype)
Test: Calcein AM viability test on ATRA-differentiated neuron-like SH-SY5Y cells
Assay type: cell-based
Conditions: 0.1 μM, 24 hours of treatment, mean of two independent experiments
Measure Name: Viability (% of DMSO control)

Problem: Param item = CCC[C@@H](C)[C@H]1CC[C@H]2[C@@H]3CC(=O)[C@H]4C[C@H](O)[C@H](O)C[C@]4(C)[C@H]3CC[C@]12C [Compound 15] ; retrieve measured Viability (% of DMSO control).
Result: 98.20 % of DMSO control

Problem: Another compound: CCCCC[C@@H](C)[C@H]1CC[C@H]2[C@@H]3CC(=O)[C@H]4C[C@H](O)[C@H](O)C[C@]4(C)[C@H]3CC[C@]12C [Compound 57]
Result: 105.90 % of DMSO control

Problem: Another compound: CCCC[C@@H](C)[C@H]1CC[C@H]2[C@@H]3CC(=O)[C@H]4C[C@H](O)[C@H](O)C[C@]4(C)[C@H]3CC[C@]12C [Compound 30]
Result: 99.41 % of DMSO control

Next:
Problem: Param item = CC(C)CCC[C@@H](C)[C@H]1CC[C@H]2[C@@H]3CC(=O)[C@H]4C[C@H](O)[C@H](O)C[C@]4(C)[C@H]3CC[C@]12C [Compound 111] ; retrieve measured Viability (% of DMSO control).
Result: 106.90 % of DMSO control

Problem: Another compound: CC[C@@H](C)[C@H]1CC[C@H]2[C@@H]3CC(=O)[C@H]4C[C@H](O)[C@H](O)C[C@]4(C)[C@H]3CC[C@]12C [Compound 6]
Result: 101.30 % of DMSO control

----------
Assay: Calcein AM viability test on ATRA-differentiated neuron-like SH-SY5Y cells
Assay type: cell-based, human
Settings: human, ATRA-differentiated neuron-like SH-SY5Y neuroblastoma cells; 1 μM, 24 hours of treatment, mean of two independent experiments; read-out: Viability (% of DMSO control)
Measure Name: viability at 24 h, 1 µM (%)
I only need the number, in %, no unit after it.

Problem: Param item = CC(=O)N(O)CCCCCNC(=O)CCC(=O)N(O)CCCCCNC(=O)CCC(=O)N(O)CCCCCN [DFO, deferoxamine, reference compound] ; retrieve measured viability at 24 h, 1 µM.
Result: 106

----------
# maps each entry to its Superoxide radical formation (% of 160 mM glutamate control)
System: neuron-like SH-SY5Y cells
Experiment: Glutamate-induced oxidative stress, superoxide radical formation by dihydroethidium staining
Format: cell-based, human
Details: 10 μM, 4 hour co-treatment with 160 mM Glu; percentages of 160 mM Glu control, mean of three independent experiments
I only need the number, in %, no unit after it.

Problem: Param item = CCCC[C@@H](C)[C@H]1CC[C@H]2[C@@H]3CC(=O)[C@H]4C[C@H](O)[C@H](O)C[C@]4(C)[C@H]3CC[C@]12C ; retrieve measured Superoxide radical formation (% of 160 mM glutamate control).
Result: 81.08

Problem: Another compound: CCC[C@@H](C)[C@H]1CC[C@H]2[C@@H]3CC(=O)[C@H]4C[C@H](O)[C@H](O)C[C@]4(C)[C@H]3CC[C@]12C
Result: 85.61

Problem: Another compound: CC[C@@H](C)[C@H]1CC[C@H]2[C@@H]3CC(=O)[C@H]4C[C@H](O)[C@H](O)C[C@]4(C)[C@H]3CC[C@]12C
Result: 80.19

Problem: Another compound: CC(C)CCC[C@@H](C)[C@H]1CC[C@H]2[C@@H]3CC(=O)[C@H]4C[C@H](O)[C@H](O)C[C@]4(C)[C@H]3CC[C@]12C
Result: 80.21

Problem: Another compound: CC(=O)N(O)CCCCCNC(=O)CCC(=O)N(O)CCCCCNC(=O)CCC(=O)N(O)CCCCCN [DFO, deferoxamine, reference compound]
Result: 87.06

Next:
Problem: Param item = CCCCC[C@@H](C)[C@H]1CC[C@H]2[C@@H]3CC(=O)[C@H]4C[C@H](O)[C@H](O)C[C@]4(C)[C@H]3CC[C@]12C ; retrieve measured Superoxide radical formation (% of 160 mM glutamate control).
Result: 83.99
